B1: PCDHGA10 (parent)
chain: FGIEIEVTDINDNAPKFQAENLDV

- Variants of: B1
- protocol summary: protein stability index of a GFP-peptide fusion (GPS, HEK-293T) (PSI 1-6); higher = more stable;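 further: lentivirally expressed fusions sorted by FACS into six bins by GFP to DsRed ratio, PSI derived from sequencing read proportions per bin multiplied by bin number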
- test parameters: c terminus: a fixed tail appended
reported endpoint: protein stability index

In [3]: df
Out[3]:
    mutation_notation  observed
 0                F1S      4.75
 1               N21H      2.82
 2               N11K      2.99
 3               N13G      2.99
 4                E4D      3.44
 5               P15W      2.05
 6                T8A      2.88
 7               D23P      2.32
 8               I10G      3.67
 9                I3M      3.96
10               I10S      3.91
11               I10Y      2.81
12               D23Q      2.42
13                E6K      2.77
14                E4S       2.5
15                E6L      1.86
16                V7N      4.46
17               A19D      3.56
18               N13A      2.85
19               F17W      2.52
20               L22T      3.65
21                T8V      2.08
